experiment: protein stability index of a GFP-peptide fusion (yeast GPS) (PSI 1-4); higher = more stable; sorted into four equal gates, so the index is relative within each strain; conditions: san1∆
# protein stability index annotations

{"chain": "VNVLLQSYFSQLKFEGF [BRR2]", "protein stability index": 1.28}
{"chain": "FLVEYEGQENNYNSTSR [SIR4]", "protein stability index": 2.29}
{"chain": "GQRTAYHSKRDASTPLR [RPB2]", "protein stability index": 3.12}
{"chain": "EFQPSGNVTELYGTAIG [PRE5]", "protein stability index": 1.98}
{"chain": "PPSSFGRSHTRNSTRSS [REC8]", "protein stability index": 3.14}
{"chain": "EEAKSVLPAATKKKSKF [ARP9]", "protein stability index": 2.04}
{"chain": "EKWLLNQIPVTEHSKVT [SRB6]", "protein stability index": 1.99}
{"chain": "DKTAVKLDTEVKNTNAN [SWP82]", "protein stability index": 2.88}
{"chain": "VSNIEGILDEIMFNHAR [RGR1]", "protein stability index": 2.46}
{"chain": "EDGTFSVLYPDELEDDT [RRP43]", "protein stability index": 3.16}
{"chain": "QNPLPTRFEVELEFIQS [SOH1]", "protein stability index": 2.29}
{"chain": "KPLGPCDVFWVQKDTAI [POP1]", "protein stability index": 2.89}
{"chain": "DPFFAQSEDLSHAVEFF [YML103C/NUP188]", "protein stability index": 3.31}
{"chain": "YSLIRETNGYDPFSIYG [SNF5]", "protein stability index": 1.15}
{"chain": "LPSGRQDGVLLVALSNE [FAS2]", "protein stability index": 2.44}
